# Test system: NCI-H292 lung cancer cells
# Test: FDA drug screening, complete media vs cholesterol-free media without statin (TABLE 1)
# Type: cell-based, human
# Settings: NCI-H292 cells, cholesterol-free media without statin, FDA drug library screen
Counter-ions that a name gives are not always drawn.
Measured Cholesterol-free, listed per entry.
Readout type: Cholesterol-free

Compound | Number
c1ccc([C@H]2CN3CCSC3=N2)cc1 [Levamisole (hydrochloride)] | 1.001
CC(C)Cc1ccc([C@H](C)C(=O)O)cc1 [(S)-(+)-Ibuprofen] | 1.011
C[C@]12C=CC(=O)C=C1CC[C@@H]1[C@@H]2[C@@H](O)C[C@@]2(C)[C@H]1CC[C@]2(O)C(=O)CO | 0.4941
CSc1ccc2c(c1)N(CCC1CCCCN1C)c1ccccc1S2 (stereo not shown) [Thioridazine (hydrochloride)] | 1.045

---

# Tested on: NCI-H292 lung cancer cells
# Test: FDA drug screening, complete media vs cholesterol-free media with simvastatin (TABLE 2)
# Format: cell-based, human
# Settings: NCI-H292 cells, FDA drug library screen, cholesterol-free media with simvastatin 0.04 μM
Counter-ions that a name gives are not always drawn.
Readout type: Cholesterol-free media + simvastatin (0.04 μM)

Compound | Number
CCC1(c2ccccc2)C(=O)NCNC1=O | 0.9863
Clc1ccccc1C(c1ccccc1)(c1ccccc1)n1ccnc1 | 0.4166
COc1cc(N)c(Cl)cc1C(=O)NC1CCN(CCCOc2ccc(F)cc2)CC1OC (stereo not drawn) [Cisapride] | 1.001
c1ccc(-c2ccc(C(c3ccccc3)n3ccnc3)cc2)cc1 (stereo not drawn) | 0.4379
COc1cc2c(cc1Cc1cccc(Cl)c1F)c(=O)c(C(=O)O)cn2[C@H](CO)C(C)C | 1.032
Cc1ccccc1OCC(O)CO (stereo not drawn) | 1.225
COc1cc2c3cc1Oc1c(OC)c(OC)cc4c1[C@@H](Cc1ccc(O)c(c1)Oc1ccc(cc1)C[C@@H]3N(C)CC2)N(C)CC4 [Berbamine (dihydrochloride)] | 0.2857
O=S(=O)([O-])CCSSCCS(=O)(=O)[O-].[Na+].[Na+] | 0.7165
CCO[C@H]1O[C@@H]2O[C@@]3(C)CC[C@H]4[C@H](C)CC[C@@H]([C@H]1C)[C@@]24OO3 | 0.9606
CN1CCN(c2cc3c(nn2)Oc2ccccc2N3C)CC1.Cl.Cl.O [Azaphen (dihydrochloride monohydrate)] | 1.02
C[C@H]1O[C@H](O[C@H]2[C@H](O)[C@@H](O)[C@@H](O[C@H]3[C@H](O)[C@@H](O)C(O)O[C@@H]3CO)O[C@@H]2CO)[C@H](O)[C@@H](O)[C@@H]1N[C@H]1C=C(CO)[C@@H](O)[C@H](O)[C@H]1O (stereo partly drawn) | 0.841
CC1(C)CCC(C)(C)c2cc(NC(=O)c3ccc(C(=O)O)cc3)ccc21 | 0.556
CCOC(=O)OC(C)OC(=O)[C@@H]1N2C(=O)[C@@H](NC(=O)[C@H](N)c3ccccc3)[C@H]2SC1(C)C (stereo partly drawn) [Bacampicillin (hydrochloride)] | 1.049
C=C(c1ccc(C(=O)O)cc1)c1cc2c(cc1C)C(C)(C)CCC2(C)C | 1.087
O=C(O)c1cc2ccccc2c(Cc2c(O)c(C(=O)O)cc3ccccc23)c1O.OCCOCCN1CCN(C(c2ccccc2)c2ccc(Cl)cc2)CC1 [Hydroxyzine (pamoate)] | 1.16

The measurements presented in this section are drawn from patent US20250144067A1.
